Values compiled from PubChem BioAssay AID1942.

target under test: Potassium voltage-gated channel subfamily KQT member 2 (Rattus norvegicus) (UniProt O88943)
Sequence (O88943 whole entry, looked up): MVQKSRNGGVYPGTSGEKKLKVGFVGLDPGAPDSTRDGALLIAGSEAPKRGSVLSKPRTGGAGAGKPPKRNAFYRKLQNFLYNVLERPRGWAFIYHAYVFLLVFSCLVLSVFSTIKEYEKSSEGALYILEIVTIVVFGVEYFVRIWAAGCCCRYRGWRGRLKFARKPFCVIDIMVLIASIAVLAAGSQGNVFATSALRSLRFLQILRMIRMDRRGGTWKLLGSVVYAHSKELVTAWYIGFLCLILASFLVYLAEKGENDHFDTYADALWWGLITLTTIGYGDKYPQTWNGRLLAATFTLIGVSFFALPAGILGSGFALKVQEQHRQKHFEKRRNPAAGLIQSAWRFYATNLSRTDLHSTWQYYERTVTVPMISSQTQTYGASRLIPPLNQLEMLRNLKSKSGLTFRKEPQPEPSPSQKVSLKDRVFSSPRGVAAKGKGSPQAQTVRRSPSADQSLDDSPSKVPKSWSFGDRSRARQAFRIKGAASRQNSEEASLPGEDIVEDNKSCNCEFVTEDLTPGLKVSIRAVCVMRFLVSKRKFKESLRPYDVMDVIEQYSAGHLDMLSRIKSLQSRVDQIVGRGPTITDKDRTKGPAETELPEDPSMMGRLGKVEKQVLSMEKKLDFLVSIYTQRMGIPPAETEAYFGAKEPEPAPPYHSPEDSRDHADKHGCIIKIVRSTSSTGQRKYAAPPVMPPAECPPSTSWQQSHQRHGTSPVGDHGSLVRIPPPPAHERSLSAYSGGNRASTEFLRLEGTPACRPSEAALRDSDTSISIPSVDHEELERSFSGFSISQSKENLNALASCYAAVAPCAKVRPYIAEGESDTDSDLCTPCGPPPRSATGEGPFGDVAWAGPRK
experiment: KCNQ2 potentiation in CHO cells – cell-based, FluxOR thallium flux, counter-screen for hERG block protector project, confirmation (AID 1942);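 further: normalized value minus buffer-control mean plus three SD of buffer wells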
settings: FluxOR thallium flux fluorescence, at 10 µM, active compounds read high
The whole screen tested about 2,400 compounds, of which about 580 (24%) were called active. Only a sample is shown.
property label: activity change, less the hit threshold (%)
Answers are plain numbers, in %.

# count of solved cases: 3
smiles | output unit | val
O=C(CSc1cccc[n+]1[O-])C12CC3CC(CC(C3)C1)C2 | % | -11.8
COc1ccccc1N=Nc1ccc(O)c2ncccc12 | % | 15.6
COc1ccc(OC)c(S(=O)(=O)Nc2ccc(O)c3ccccc23)c1 | % | -22.3

Respectfully, I request activity change, less the hit threshold for each entry included below.
1. N#Cc1ccc(-c2ccc(OCC(=O)Nc3cccnc3)cc2)cc1
2. CCOC(=O)N1CCN(C(=O)CN(c2ccc(OCC)cc2)S(C)(=O)=O)CC1
3. CCN(CC)S(=O)(=O)c1cc(OC)ccc1N=Nc1ccc(O)c2ncccc12
4. O=C(Nc1ccccc1)OCCCCCOC(=O)Nc1ccccc1
5. CCOc1ccc(N=Nc2ccc(O)c3ncccc23)cc1

Key:
1. -9.1
2. -17.4
3. 44.8
4. -18.2
5. -5.6

Dear colleague, could you send me activity change, less the hit threshold for each of the items below? Thanks.
1. CCc1cccc(C)c1NC(=O)Cc1ccsc1
2. CCCNc1c(NS(=O)(=O)c2cccc(C#N)c2)c(=O)oc2ccccc12

Key:
-12.4
-15.8

Exercise: Which activity change, less the hit threshold reading was recorded for the compound `CCCN1CCN(CCCNC(=O)Cn2nc(C)n3c(cc4cc(OC)ccc43)c2=O)CC1` ?
Key: -25.2

---

target under test: Potassium voltage-gated channel subfamily KQT member 2 (Rattus norvegicus) (UniProt O88943)
experiment: KCNQ2 potentiation in CHO cells – cell-based, FluxOR thallium flux, counter-screen for hERG block protector project, confirmation (AID 1942);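 further: normalized value minus buffer-control mean plus three SD of buffer wells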
settings: FluxOR thallium flux fluorescence, at 10 µM, active compounds read high
The whole screen tested about 2,400 compounds, of which about 580 (24%) were called active. A selection follows.
Decision: activity change, less the hit threshold compared against -10%; not below it gives MET, below it gives NOT MET.

compound | classification
CCCc1nc(SCC(=O)Nc2cc(C)on2)c2ccccc2n1 | NOT MET
Cc1cc(-c2cccc(Br)c2)c(C#N)c(N)n1 | NOT MET
O=C(N/N=C/c1ccc(OC(F)F)cc1)C1=COCCO1 | NOT MET
Cc1ccc2cc(CCNC(=O)C(=O)c3c(C)[nH]c4ccccc34)c(=O)[nH]c2c1 | NOT MET
Cc1nn(-c2ccccc2)c(Cl)c1/C=C1\SC(=S)NC1=O | MET
CN(C)C(=O)c1cc(C(=O)c2ccc(Cl)cc2Cl)c[nH]1 | NOT MET
CN(C)/C=C/C(=O)c1ccc(Cl)cc1Cl | NOT MET
CC(=O)C1C(=O)c2c(cccc2[N+](=O)[O-])C1=Nc1ccccc1C (stereo unspecified) | NOT MET

Exercise: Evaluate `Cc1cc(NC(=O)CSc2nc(C3CC3)nc3sc(C)c(C)c23)no1` : activity change, less the hit threshold at minimum -10%?
Key: MET

Exercise: Reported activity change, less the hit threshold reaches at least -10% for `COc1cc(S(=O)(=O)n2cnc(C)c2)ccc1Cl` ?
Key: NOT MET

Exercise: State whether the measured activity change, less the hit threshold reaches -10%, counting equality as reaching it, for `CCc1nnc(NC(=O)c2c(C)nn(-c3ccccc3)c2Cl)s1`
Key: MET
